- target-under-test: Alpha-1A adrenergic receptor (Homo sapiens, UniProt P35348)
- Sequence (P35348 whole entry): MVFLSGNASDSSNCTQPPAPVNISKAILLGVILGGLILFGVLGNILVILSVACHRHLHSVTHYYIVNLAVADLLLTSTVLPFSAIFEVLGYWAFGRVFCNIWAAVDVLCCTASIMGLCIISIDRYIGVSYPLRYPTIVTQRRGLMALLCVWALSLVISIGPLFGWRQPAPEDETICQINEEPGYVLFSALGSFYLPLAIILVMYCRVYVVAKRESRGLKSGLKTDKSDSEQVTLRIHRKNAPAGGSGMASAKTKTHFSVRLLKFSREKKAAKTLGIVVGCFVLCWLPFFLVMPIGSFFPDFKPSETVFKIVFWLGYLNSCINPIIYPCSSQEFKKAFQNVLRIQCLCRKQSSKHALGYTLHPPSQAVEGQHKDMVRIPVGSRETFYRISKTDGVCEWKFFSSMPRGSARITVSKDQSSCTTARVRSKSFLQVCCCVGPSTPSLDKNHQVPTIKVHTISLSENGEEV
- measurement-notes: Agonism of human alpha-1A adrenergic receptor expressed in rat 1 fibroblast cells
Please respond with class 1 when measured EC50 is strictly beneath 3 nM, and with class 0 in all other cases.

Enquiry: Consider "CCn1cc(-c2ccccc2NCC2=NCCN2)cn1" . Does its EC50 lie strictly below 3 nM?
Return: class 0

Enquiry: Say whether its EC50 is strictly beneath 3 nM. Entry: "Cc1nc(-c2ccccc2NCC2=NCCN2)n(C)n1"
Return: class 0

Enquiry: EC50 under 3 nM? Item: "CCn1cccc1-c1ccccc1NCC1=NCCN1"
Return: class 1

Enquiry: EC50 strictly < 3 nM for this compound? "Cn1ccnc1-c1ccccc1NCC1=NCCN1"
Return: class 0

Enquiry: Hello, is EC50 of the following compound strictly smaller than 3 nM? "c1ccc(-c2cc[nH]n2)c(NCC2=NCCN2)c1"
Return: class 1

Enquiry: Determine whether this compound shows EC50 lower than 3 nM (ties excluded): "CC(C)n1ncnc1-c1ccccc1NCC1=NCCN1"
Return: class 0

Enquiry: Does the reported EC50 of the following compound sit strictly below 3 nM? "CCn1nccc1-c1ccccc1NCC1=NCCN1"
Return: class 0

Enquiry: Below 3 nM on EC50? Entry "CCCCn1ncnc1-c1ccccc1NCC1=NCCN1"
Return: class 0

Enquiry: Confirm or reject: EC50 of "Cn1ncnc1-c1ccccc1NCC1=NCCN1" lies strictly below 3 nM
Return: class 1

Enquiry: Determine whether this compound shows EC50 lower than 3 nM (ties excluded): "CCn1ncnc1-c1ccccc1NCC1=NCCN1"
Return: class 1

Enquiry: API: query returns whether the compound falls strictly under 3 nM in EC50. Query: "Cn1cccc1-c1ccccc1NCC1=NCCN1"
Return: class 0
